Data origin, for the record: ChEMBL document CHEMBL4406831

molecular target: Neuronal acetylcholine receptor subunit alpha-7 (Homo sapiens, UniProt P36544); test: Agonist activity at human alpha7 nAChR expressed in Xenopus laevis oocytes assessed as induction of channel current at 10 uM at -90 mV holding potential by two-electrode voltage clamp method relative to acetylcholine; format: cell-based
Sequence (P36544 whole entry): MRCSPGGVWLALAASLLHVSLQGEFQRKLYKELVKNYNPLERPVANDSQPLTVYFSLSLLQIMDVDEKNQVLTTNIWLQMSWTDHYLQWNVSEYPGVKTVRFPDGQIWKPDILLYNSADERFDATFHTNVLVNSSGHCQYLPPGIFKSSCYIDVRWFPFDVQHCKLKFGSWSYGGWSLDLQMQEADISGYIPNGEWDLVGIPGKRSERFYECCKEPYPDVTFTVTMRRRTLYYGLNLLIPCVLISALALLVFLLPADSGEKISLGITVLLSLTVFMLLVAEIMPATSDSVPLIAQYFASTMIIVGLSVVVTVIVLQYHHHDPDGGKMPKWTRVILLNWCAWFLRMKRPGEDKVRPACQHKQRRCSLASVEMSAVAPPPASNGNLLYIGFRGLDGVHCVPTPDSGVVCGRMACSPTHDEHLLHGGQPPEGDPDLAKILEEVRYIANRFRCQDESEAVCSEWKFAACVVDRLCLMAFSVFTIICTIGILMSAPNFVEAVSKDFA
Listed here are compounds together with their documented Activity.
READOUT_KIND: Activity

> print(dat)
                                 item.smiles      result
 1  O=C(N[C@H]1CN2CCC1CC2)c1cc2ccc3cc(OC(F)F)ccc3n2c1       < 60%
 2  O=C(N[C@H]1CN2CCC1CC2)c1cc2ccc3cc(Cl)ccc3n2c1       < 60%
 3  Cc1ccc2c(ccc3cc(C(=O)N[C@H]4CN5CCC4CC5)cn32)c1      > 120%
 4  O=C(N[C@H]1CN2CCC1CC2)c1cc2ccc3cc(N4CCCC4)ccc3n2c1       < 60%
 5  COc1ccc2c(ccc3cc(C(=O)N[C@H]4CN5CCC4CC5)cn32)c1       < 60%
 6  O=C(N[C@H]1CN2CCC1CC2)c1cc2ccc3cc(-c4ccccc4)ccc3n2c1       < 60%
 7  CC(C)(C)c1ccc(-c2ccc3c(ccc4cc(C(=O)N[C@H]5CN6CCC5CC6)cn43)c2)cc1  60 to 120%
 8  O=C(N[C@H]1CN2CCC1CC2)c1cc2ccc3cc(Br)ccc3n2c1       < 60%
 9  C#CCOc1ccc2c(ccc3cc(C(=O)N[C@H]4CN5CCC4CC5)cn32)c1  60 to 120%
10  O=C(N[C@H]1CN2CCC1CC2)c1cc2ccc3cc(C4CC4)ccc3n2c1       < 60%
11  CCCOc1ccc2c(ccc3cc(C(=O)N[C@H]4CN5CCC4CC5)cn32)c1       < 60%
12  O=C(N[C@H]1CN2CCC1CC2)c1cc2ccc3cc(N4CCCCC4)ccc3n2c1       < 60%
13  O=C(N[C@H]1CN2CCC1CC2)c1cc2ccc3cc(-c4cccnc4)ccc3n2c1       < 60%
14  Cc1ccccc1-c1ccc2c(ccc3cc(C(=O)N[C@H]4CN5CCC4CC5)cn32)c1  60 to 120%
15  O=C(N[C@H]1CN2CCC1CC2)c1cc2ccc3ccccc3n2c1  60 to 120%
16  O=C(N[C@H]1CN2CCC1CC2)c1cc2ccc3cc(F)ccc3n2c1  60 to 120%
17  O=C(N[C@H]1CN2CCC1CC2)c1cc2ccc3cc(C(F)(F)F)ccc3n2c1       < 60%
